Origin of the recorded values: ChEMBL document CHEMBL1240390

# Test: Cmax in ICR mouse at 20 mg/kg, ip after 2 hrs
# Type: ADME, organism-based
# Set-up: dose 20 mg/kg, route intraperitoneal
# Condition Context: in vivo
Assay Readout: Cmax (µg/mL)
Numbers only; they are read as µg/mL.

Tell me its Cmax given `CN[C@H]1C(=O)N[C@@H]2Cc3ccc(cc3)Oc3cc4cc(c3O[C@@H]3O[C@H](C(=O)O)[C@@H](O)[C@H](O)[C@H]3NC(=O)CCCCCCCCC(C)C)Oc3ccc(cc3Cl)[C@@H](O)[C@@H]3NC(=O)[C@H](NC(=O)[C@@H]4NC(=O)[C@@H](NC2=O)c2cc(cc(O)c2Cl)Oc2cc1ccc2O)c1ccc(O)c(c1)-c1c(O[C@H]2O[C@H](CO)[C@@H](O)[C@H](O)[C@@H]2O)cc(O)cc1[C@@H](C(=O)NCCCN(C)C)NC3=O` as the entry.
71.3
